tested on: BT-549 breast; experiment: NCI tumour cell line growth inhibition, 48 h
readout-label: log10 TGI (log10 of the value in µM)

>  <molecule>
COc1ccc(NC(=S)c2ccc(CN3CCCCC3)s2)cc1

>  <readout-label>
log10 TGI

>  <value>
1.64

$$$$
>  <molecule>
O=C1c2ccccc2C(=O)c2c(/C=C\N3CCCCC3)ccnc21

>  <readout-label>
log10 TGI

>  <value>
0.35

$$$$
>  <molecule>
CC(C)C(NC(=O)Oc1ccccc1)C(=O)NC1c2c(Br)sc(Br)c2C(=O)C1O (stereo not given)

>  <readout-label>
log10 TGI

>  <value>
0.91

$$$$
>  <molecule>
O=[N+]([O-])c1cc([N+](=O)[O-])c(C(F)(F)F)cc1NN=C(c1ccc(O)cc1)c1ccc(O)cc1

>  <readout-label>
log10 TGI

>  <value>
1.63

$$$$
>  <molecule>
COCOC1/C=C/CCCCC(=O)C(C)C#CC1 (stereo not given)

>  <readout-label>
log10 TGI

>  <value>
1.29

$$$$
>  <molecule>
O=C1/C(=C\c2ccc(Cl)cc2Cl)Sc2scc(-c3ccc(O)c(O)c3)[n+]21

>  <readout-label>
log10 TGI

>  <value>
1.67

$$$$

src = PubChem BioAssay (NCI)
